# melting point values compiled below

compound	melting point
CC(C)(O)c1cccc(-c2ccn3nc(-c4ccc(F)cc4)cc3c2)c1	162 to 164 °C

Given the entry OCc1ccccc1-c1ccn2nc(-c3ccc(Cl)cc3)cc2c1 , report its measured melting point. 144 to 146 °C

Proceed to OCc1cccc(-c2ccn3nc(-c4ccc(F)cc4)cc3c2)c1 141 to 143 °C

Lookup OCC1(c2cccc(-c3ccn4nc(-c5ccc(Cl)cc5)cc4c3)c2)CC1 141 to 143 °C

Request: CC(C)(O)c1cccc(-c2ccn3nc(-c4ccc(Cl)cc4)cc3c2)c1 159 to 161 °C

Let us now turn to OCc1ccc(-c2ccn3nc(-c4ccc(Cl)cc4)cc3c2)cc1 214 to 216 °C

Same lookup for CC(O)c1cccc(-c2ccn3nc(-c4ccc(Cl)cc4)cc3c2)c1 (stereo not shown) , please. 93 to 95 °C

---

Reported melting point is given for each of the following compounds.

Here is how some compounds turned out for melting point.
compound	melting point
CC(O)c1cccc(-c2ccn3nc(-c4ccc(F)cc4)cc3c2)c1 (centres unmarked)	132 to 134 °C
OC1CCc2ccc(-c3ccn4nc(-c5ccc(Cl)cc5)cc4c3)cc21 (centres unmarked)	181 to 183 °C
OCc1c(F)ccc(-c2ccn3nc(-c4ccc(Cl)cc4)cc3c2)c1F	190 to 192 °C
OCc1cccc(-c2ccn3nc(-c4ccc(Cl)cc4)cc3c2)c1	161 to 164 °C

For the next question, use this compound.
Need melting point of COCc1cccc(-c2ccn3nc(-c4ccc(Cl)cc4)cc3c2)c1 , thanks. 130 to 132 °C

---

Target: mouse Nurr1 receptor (Mus musculus)
Construct: a cell line (N2A) endogenously expressing the mouse Nurr1 receptor
Sequence (Q06219 whole entry): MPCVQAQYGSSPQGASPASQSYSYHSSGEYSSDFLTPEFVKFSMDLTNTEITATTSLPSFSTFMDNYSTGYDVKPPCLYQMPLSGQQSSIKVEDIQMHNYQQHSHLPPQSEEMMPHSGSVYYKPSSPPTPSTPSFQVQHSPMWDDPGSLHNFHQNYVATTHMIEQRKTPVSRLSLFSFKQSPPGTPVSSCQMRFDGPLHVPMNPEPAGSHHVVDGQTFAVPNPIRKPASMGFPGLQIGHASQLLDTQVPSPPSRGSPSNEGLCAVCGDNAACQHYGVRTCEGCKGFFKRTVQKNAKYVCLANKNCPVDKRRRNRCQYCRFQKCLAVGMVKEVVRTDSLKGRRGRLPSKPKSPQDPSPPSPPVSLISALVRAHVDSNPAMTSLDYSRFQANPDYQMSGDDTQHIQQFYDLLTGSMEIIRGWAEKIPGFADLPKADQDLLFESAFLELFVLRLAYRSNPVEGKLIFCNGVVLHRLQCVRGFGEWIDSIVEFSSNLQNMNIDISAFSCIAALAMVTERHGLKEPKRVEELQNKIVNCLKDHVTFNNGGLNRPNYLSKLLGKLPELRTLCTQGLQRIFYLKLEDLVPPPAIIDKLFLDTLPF
Assay: In vitro activity on N2A cells (8NBRE-luciferase reporter)
Conditions: N2A-8NBRE cells, 24 hours incubation
measured_endpoint: EC50 (nM)
Give just the numeric value; nM need not be written.

compound	measurement_target	value_unit	EC50
OCc1ccccc1-c1ccn2nc(-c3ccc(Cl)cc3)cc2c1	mouse Nurr1 receptor (Mus musculus)	nM	1.7
OC1CCc2ccc(-c3ccn4nc(-c5ccc(Cl)cc5)cc4c3)cc21 (stereo not drawn)	mouse Nurr1 receptor (Mus musculus)	nM	164

# evaluate next
Item under review: OCc1cccc(-c2ccn3nc(-c4ccc(Cl)cc4)cc3c2)c1 . Reported EC50? 0.2
